These entries and their values trace back to PubChem BioAssay.

# system: NADPH oxidase 2 (Homo sapiens)
# assaySummary: NOX2-dependent H2O2 signal modulators, primary screen, NOX inhibitor project, cell-based, HEK293-NOX2, PMA-stimulated, Amplex Red fluorescence (AID 1159); note: test concentration not given here
# cond: 45 min, higher = more signal, called active from +8 up or from −8 down
Each entry below lists one item and its recorded z-score value.
readoutType: z-score

- O=C1[C@H]2[C@H]3[C@H](O)[C@H](O)CC(=NO[C@@H]4O[C@H](CO)[C@@H](O)[C@H](O)[C@H]4O)[C@H]3CC[C@H]2C(=O)N1C1CCCCC1: -0.717
- C[C@H]1Cc2c(-c3ccccc3)nc3c(c2CO1)CN(CCOc1ccccc1)CC3: 0.17
- CCCNC(=O)[C@@H]1c2ccccc2C(=O)N(Cc2ccccc2Cl)[C@H]1c1ccc(CO)cc1: -0.988
- CCOC(=O)NN=C1C[C@@H](O)[C@@H](O)[C@@H]2[C@@H]3C(=O)N(C(C)(C)C)C(=O)[C@@H]3CC[C@@H]12: 0.5
- CC(CCN1CCc2nc(-c3ccccc3)c(-c3ccccc3)cc2C1)=NOC(C)CN1CCCCc2nc(C)c(C)cc21 (stereo not given): -0.839
- CC[C@@H](c1ccccc1)n1c(=O)n2n(c1=O)[C@H]1[C@H](O)[C@@H]3O[C@@H]3C(=NOCC(C)C)[C@H]1CC2: 1.72
- O=C1C2C=CC(C(O)c3ccc([N+](=O)[O-])cc3)N(Nc3ccc([N+](=O)[O-])cc3)C2C(=O)N1c1ccccc1 (stereo not given): -1.24
- CO[C@@H]1COC(=O)CCC[C@@H](C)[C@H](OC)COC(=O)CCC[C@H]1C: 0.545
- CCCCCN1CC=CC23O[C@@H]4C=CCOC(=O)[C@@H]4[C@H]2C(=O)N(CCCCCCO)[C@@H]3C1=O (stereo not given in full): 1.24
- COC(=O)[C@H](C)NC(=O)CCC1CC(OC(=O)NCc2ccc3c(c2)OCO3)CC2(CCCC(COC(=O)NCCOc3ccccc3)O2)O1 (stereo not given in full): -0.245
- CO[C@H]([C@@H](C)[C@H](OC)c1ccccc1)[C@H](C)[C@@H](OC)[C@H](C)C(C)=O: -0.0369
- COCCOC(=O)N1C(=O)[C@@]2(c3cc(C#CC4(O)CCCCCC4)ccc31)[C@H](C(=O)N1CCN(c3ncccn3)CC1)[C@H]1C(=O)O[C@H](c3ccccc3)[C@H](c3ccccc3)N1[C@@H]2c1ccc(OCCO)cc1: 1.69
- CN(C)CCCNC(=O)[C@@H]1c2ccccc2C(=O)N(Cc2cc(F)cc(C(F)(F)F)c2)[C@H]1c1ccc(CO)cc1: 0.547
- O=C1O[C@@H](c2ccccc2)[C@@H](c2ccccc2)N2[C@@H](c3ccc(OCCO)cc3)[C@]3(C(=O)Nc4ccc(C#CCCO)cc43)[C@@H](C(=O)N3CCCCCCC3)[C@H]12: 1.6
- Cc1cc2c(c(=O)o1)[C@H](O)[C@H]1O[C@H]1C2=O: 1.67
- CCOC(=O)CCN1C(=O)[C@H]2[C@H]3[C@H](O)[C@H](O)CC(=NOCc4ccccc4)[C@@H]3CC[C@H]2C1=O: -0.104
- CCc1cc2c(nc1CC)CCN(CCC(C)=NOC[C@@H](O)COCc1ccco1)C2: -0.566
- O=C1[C@H]2[C@H]3[C@H](O)[C@H](O)CC(=NOC[C@@H](O)COCc4ccco4)[C@H]3CC[C@H]2C(=O)N1c1cccc(Oc2ccccc2)c1: -2.98
- CO[C@@H]1COC(=O)CC=C[C@@H](C)[C@@H]2C=C[C@@H](O)[C@@H](COC(=O)CC=C[C@H]1C)O2: -0.0926
- O=C1[C@H]2[C@H]3[C@H](O)[C@H](O)CC(=NO[C@@H]4O[C@H](CO)[C@@H](O)[C@H](O)[C@H]4O)[C@H]3CC[C@H]2C(=O)N1Cc1ccccc1: -2.63
- CO[C@@H]1COC(=O)CC=C[C@@H](C)[C@H](OC)COC(=O)[C@H](COCc2ccccc2)NC(=O)CC=C[C@H]1C: -1.79
- CN(C)C(=O)[C@@]1(Cc2ccccc2)N=C(c2ccc(OCCCO)cc2)O[C@H]1c1ccccc1CN=[N+]=[N-]: -1.75
- CO[C@H]1O[C@H](CO)[C@@H](OC(=O)Nc2ccc(C#N)cc2)[C@H](OC(=O)c2cc3ccccc3[nH]2)[C@H]1OC(=O)c1cc2ccccc2[nH]1: -3.9
- Cc1ccc(S[C@]2(C(=O)O)CC(=O)N(Cc3ccccc3)[C@@H]2c2ccc(CO)cc2I)cc1: 1.71
- C#C[C@@H](CC)O[Si](C#Cc1ccc(Oc2ccccc2)cc1)(C(C)C)C(C)C: 0.278
- COc1ccc(-c2nc3c(c4c2C[C@H](C)OC4)CN(CCC(C)C)CC3)cc1: -0.112
- CC(C)C[C@@H]1NC(=O)[C@H]2C[C@@H](C(=O)O)[C@@H](c3ccc(O)cc3)N2C1=O: -1.72
- [N-]=[N+]=Nc1ccccc1C[C@@]1(C(N)=O)N=C(c2ccc(OCCCO)cc2)O[C@@H]1c1ccccc1: -2.2
- COC(=O)[C@]1(CO)N=C(c2ccc(OCCCO)cc2)O[C@@H]1c1ccccc1N=[N+]=[N-]: -0.502
- COC(=O)[C@@H]1N=C(c2ccc(OCCCO)cc2)O[C@@H]1c1ccccc1N=[N+]=[N-]: -1.24
